// provenance: the supplement of paper PMC10724198

tested on: Saccharomyces cerevisiae; test: protein stability index of tFT-peptide fusion (C-terminal peptide) (PSI (0-1 scale)); higher = more stable (slower turnover); conditions: genetic background: wild type; temperature: 30 C
Exercise: for every item that follows, state its recorded protein stability index.
Give the value as a plain number.

Qu. Suppose we examine the sequence PLQWLSTWDIAP [PMT6 C-terminal 12 aa] ; what protein stability index value has been reported?
Ans. 0.757

Qu. Given KPSAKPVDLSKL [DAL7 C-terminal 12 aa] , state its recorded protein stability index.
Ans. 0.846

Qu. Any idea what protein stability index was measured for KTITIGNLPNSI [UGA2 C-terminal 12 aa] ?
Ans. 0.715

Qu. Which protein stability index is reported for this sequence? GKQLLSPMGRAF [TKL2 C-terminal 12 aa]
Ans. 0.653

Qu. Any idea what its protein stability index is? The sequence is LLLQFPPYLPHD [LAG2 C-terminal 12 aa]
Ans. 0.744

Qu. Sample DDNDDSDEREIW [UBR1 C-terminal 12 aa] — what was its protein stability index?
Ans. 0.71
